The reported numbers originate from patent US10183943B2.

Tested on: E. coli UFR41 (TEM-1, CTX-M-15, CMY-2, OXA-1, NDM-4)
Assay: MIC of ceftazidime (CAZ) in combination with compounds at 4 μg/mL, broth microdilution
Assay type: cell-based
Settings: strain UFR41; MIC of CAZ with compound fixed at 4 μg/mL
assay-readout: MIC combination of CAZ and compounds of the invention at 4 μg/mL

Example results:
{"compound": "O=C1N2CC(c3ncco3)=CC(C2)N1OS(=O)(=O)[O-].[Na+] (stereo not drawn) [Example 25]", "result": "0.25 µg/mL"}
{"compound": "O=C1N2CC=C(c3cnco3)C(C2)N1OS(=O)(=O)[O-].[Na+] (stereo not drawn) [Example 3]", "result": ">64 µg/mL"}
{"compound": "O=C1N2CC(c3cccnc3)=CC(C2)N1OS(=O)(=O)[O-].[Na+] (stereo not drawn) [Example 41]", "result": "<0.25 µg/mL"}
{"compound": "O=C1N2CC(c3ncco3)=C[C@H](C2)N1OS(=O)(=O)[O-].[Na+] [Example 44]", "result": "<0.25 µg/mL"}

Now, please, on to the next compound.
Exercise: Kindly state the measured MIC combination of CAZ and compounds of the invention at 4 μg/mL obtained for Cn1ncc(C2=CCN3CC2N(OS(=O)(=O)[O-])C3=O)cc1=O.[Na+] (stereo not drawn) [Example 19] with E. coli UFR41 (TEM-1, CTX-M-15, CMY-2, OXA-1, NDM-4).
Solution: >64 µg/mL

====

Molecular target: OXA-1 (Escherichia coli, UniProt P13661)
Construct: made in house; host or cells: E. coli
Sequence (P13661 26-276): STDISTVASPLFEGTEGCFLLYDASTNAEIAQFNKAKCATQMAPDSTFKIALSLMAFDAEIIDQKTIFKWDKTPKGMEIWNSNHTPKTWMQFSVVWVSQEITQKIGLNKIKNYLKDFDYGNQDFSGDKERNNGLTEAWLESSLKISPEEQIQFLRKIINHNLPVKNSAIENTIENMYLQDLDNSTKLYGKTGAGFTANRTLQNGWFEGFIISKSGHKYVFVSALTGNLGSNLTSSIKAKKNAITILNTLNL
Experiment: β-lactamase inhibitory activity, determination of IC50 (nitrocefin hydrolysis)
Assay type: biochemical
Conditions: class (D); nitrocefin 200 μM, 30 min pre-incubation; read-out: IC50 β-lactamase OXA-1
assay-readout: pIC50
Value format note: pIC50 is -log10 of concentration (mol/L); just state the number.

Example results:
{"compound": "O=C1N2CC=C(c3ccns3)C(C2)N1OS(=O)(=O)[O-].[Na+] (stereo not drawn) [Example 30, sulfate]", "pIC50": 6.82}
{"compound": "Cn1c(C2=CCN3CC2N(OS(=O)(=O)[O-])C3=O)cccc1=O.[Na+] (stereo not drawn) [Example 18, sulfate]", "pIC50": 7.46}
{"compound": "O=C1N2CC=C(c3cnsc3)C(C2)N1OS(=O)(=O)[O-].[Na+] (stereo not drawn) [Example 29, sulfate]", "pIC50": 6.48}
{"compound": "O=C1N2CC(c3ncco3)=CC(C2)N1OS(=O)(=O)[O-].[Na+] (stereo not drawn)", "pIC50": 6.51}

Exercise: Param item = Cn1ccc(C2=CCN3CC2N(OS(=O)(=O)[O-])C3=O)cc1=O.[Na+] (stereo not drawn) [Example 13, sulfate] ; retrieve measured pIC50.
Solution: 6.09

Exercise: Next up: COc1ncc(C2=CC3CN(C2)C(=O)N3OS(=O)(=O)[O-])s1.[Na+] (stereo not drawn) [Example 39, sulfate]
Solution: 6.66

Exercise: Subsequent entry: O=C1N2CC=C(c3cncnc3)C(C2)N1OS(=O)(=O)[O-].[Na+] (stereo not drawn) [Example 10, sulfate]
Solution: 6.70

Exercise: Also O=C1N2CC(n3ccnc3)=CC(C2)N1OS(=O)(=O)[O-].[Na+] (stereo not drawn) ?
Solution: 6.39

Exercise: Same read-out for Cn1ncc(C2=CCN3CC2N(OS(=O)(=O)[O-])C3=O)cc1=O.[Na+] (stereo not drawn) [Example 19, sulfate] ?
Solution: 6.42

Exercise: How about Cn1cc(C2=CCN3CC2N(OS(=O)(=O)[O-])C3=O)ccc1=O.[Na+] (stereo not drawn) [Example 8, sulfate] ?
Solution: 6.16

Exercise: What do we get for O=C1N2CC=C(c3cccnc3)C(C2)N1OS(=O)(=O)[O-].[Na+] (stereo not drawn) ?
Solution: 6.89

Exercise: Proceed to O=C1N2CC(c3cn[nH]c3)=CC(C2)N1OS(=O)(=O)[O-].[Na+] (stereo not drawn) [Example 43, sulfate]
Solution: 5.92
